Catalogue of % DAMGO (0.1 μM) values
System: mu opiate receptor (MOR)
experiment summary: MOR agonist activity using [35S]GTPγS binding assay in striatal membranes
Format: biochemical
condition description: Series B; 0.1 μM compound, relative to DAMGO
Please state the figure in %; there is no need to write the unit.

Guide cases for % DAMGO (0.1 μM), answers given:
• COc1cccc(CCC(=O)CC2c3c(cc4c(c3OC)OCO4)CC[N+]2(C)C)c1 (centres unmarked) [Compound B0034] = 71.6
• COc1ccccc1CCC(=O)CC1c2c(cc3c(c2OC)OCO3)CC[N+]1(C)C (centres unmarked) [Compound B0045] = 82.6
• COc1c2c(cc3c1C(CC(=O)c1cccc(C(F)(F)F)c1)[N+](C)(C)CC3)OCO2 (centres unmarked) [Compound B0006] = 44.8
• COc1c2c(cc3c1C(CC(=O)Cc1ccccc1C)[N+](C)(C)CC3)OCO2 (centres unmarked) [Compound B0031] = 109.6

Given item COc1ccccc1C(=O)CC1c2c(cc3c(c2OC)OCO3)CC[N+]1(C)C (centres unmarked) [Compound B0025] , the value recorded as its % DAMGO (0.1 μM) is 96.3

----------
System: mu opiate receptor (MOR)
experiment summary: MOR agonist activity using [35S]GTPγS binding assay in striatal membranes
Type: biochemical
condition description: 1 μM compound relative to DAMGO
measurement name: % DAMGO (1 μM) (%)
Please state the figure in %; there is no need to write the unit.

* CC1CN(CC(O)COc2cc(F)cc(F)c2)CC(C)O1 (centres unmarked) | 128.3
* OC(COc1ccc(Br)c(F)c1)CN1CCc2ccccc2C1 (centres unmarked) | 83.3

Given item CC1CCC(C(C)C)C(OCC(O)CN2CC(C)CC(C)C2)C1 (centres unmarked) , the value recorded as its % DAMGO (1 μM) is 102.1

Given item CC1CCC(C(C)C)C(OCC(O)CN2CCCCC2C)C1 (centres unmarked) , the value recorded as its % DAMGO (1 μM) is 96.4

Given item CC1CCC(C(C)C)C(OCC(O)CN2CCc3ccccc32)C1 (centres unmarked) , the value recorded as its % DAMGO (1 μM) is 115.7

----------
tested on: UniProt P21333
experiment summary: FITC-NLX-based FLNA screening assay (inhibition of FITC-naloxone binding to Bn-VAKGL on streptavidin plates)
condition description: FLNA-binding compound 0.1 μM; 10 nM FITC-NLX; read-out: Percent Binding Inhibition
measurement name: inhibition at 0.1 µM (%)
Please state the figure in %; there is no need to write the unit.

Guide cases for inhibition at 0.1 µM, answers given:
* O=C(O)c1ccc(C(=O)N2CCC3(CC2)OCCN3S(=O)(=O)c2ccc(C(=O)O)cc2)cc1 [Compound C0021] | 38.4
* COc1ccc(S(=O)(=O)N2CCC3(CC2)NCCO3)cc1 [Compound C0026] | 44.8
* CS(=O)(=O)c1ccc(S(=O)(=O)N2CCOC23CCN(CC2CC2)CC3)cc1 [Compound C0126M] | 55.4
* COc1ccc(OCC(O)Cn2ccc3ccccc32)cc1 (centres unmarked) [Compound A0077] | 48.7
* CC(=O)c1ccc(S(=O)(=O)N2CCC3(CC2)OCCN3S(C)(=O)=O)cc1 [Compound C0056] | 38.9
* CC1CN(CC(O)COc2ccc(Br)c(Cl)c2)CC(C)O1 (centres unmarked) [Compound A0045] | 35

Given item CC1CCC(C(C)C)C(OCC(O)CN2CC(C)CC(C)C2)C1 (centres unmarked) [Compound A0008] , the value recorded as its inhibition at 0.1 µM is 33.5

Given item O=[N+]([O-])c1ccc(S(=O)(=O)N2CCC3(CC2)NCCCO3)cc1 [Compound C0045] , the value recorded as its inhibition at 0.1 µM is 48.9

Given item CN(C)c1cccc(OCC(O)CN2CCc3ccccc3C2)c1 (centres unmarked) [Compound A0050] , the value recorded as its inhibition at 0.1 µM is 49.8

Given item COc1c2c(cc3c1OCO3)CCN(CC(O)COC1CC(C)CCC1C(C)C)C2 (centres unmarked) [Compound A0061] , the value recorded as its inhibition at 0.1 µM is 38.9

Given item CC(=O)c1ccc(S(=O)(=O)N2CCOC23CCN(CC2CC2)CC3)cc1 [Compound C0095M] , the value recorded as its inhibition at 0.1 µM is 46.6

Given item CCCCc1ccc(S(=O)(=O)N2CCC3(CC2)OCCN3S(=O)(=O)c2ccc(CCCC)cc2)cc1 [Compound C0030] , the value recorded as its inhibition at 0.1 µM is 45.4

Given item OC(COc1cccc(C(F)(F)F)c1)CN1CCc2ccccc2C1 (centres unmarked) [Compound A0054] , the value recorded as its inhibition at 0.1 µM is 35.8

Given item O=[N+]([O-])c1ccc(S(=O)(=O)N2CCC3(CC2)NCCS3)cc1 [Compound C0044] , the value recorded as its inhibition at 0.1 µM is 43.9

Given item CC(=O)c1ccc(S(=O)(=O)N2CC(CN(C)C)OC23CCN(CC2CC2)CC3)cc1 (centres unmarked) [Compound C0128M] , the value recorded as its inhibition at 0.1 µM is 54.4

----------
tested on: FLNA pentapeptide of SEQ ID NO: 1 (Bn-VAKGL) (Homo sapiens)
experiment summary: FITC-NLX-based FLNA screening assay (inhibition of FITC-naloxone binding to Bn-VAKGL on streptavidin plates)
condition description: FLNA-binding compound 1 μM; 10 nM FITC-NLX; read-out: Percent Binding Inhibition
Catalogue of inhibition at 1 µM values
Please state the figure in %; there is no need to write the unit.

Guide cases for inhibition at 1 µM, answers given:
• COc1ccc(OCC(O)CN2CCOc3ccccc32)cc1 (stereo not drawn) = 44.9
• CC1CN(CC(O)COc2ccc(Cl)cc2)CC(C)O1 (stereo not drawn) = 44.5
• CC1CCC(C(C)C)C(OCC(O)CN2CCCCCCC2)C1 (stereo not drawn) = 44.7
• O=C1CNC2(CCN(S(=O)(=O)c3ccc(O)cc3)CC2)N1Cc1ccccc1 [Compound C0148M] = 57
• CC(=O)c1ccc(S(=O)(=O)N2CC(CN(C)C)OC23CCN(CC2CC2)CC3)cc1 (stereo not drawn) [Compound C0128M] = 58.2

Fill in: FLNA pentapeptide of SEQ ID NO: 1 (Bn-VAKGL) (Homo sapiens) inhibition at 1 µM for CC1CCC(C)C(OCC(O)CN2CC(C)OC(C)C2)C1 (stereo not drawn) = 56.8

Fill in: FLNA pentapeptide of SEQ ID NO: 1 (Bn-VAKGL) (Homo sapiens) inhibition at 1 µM for C=CCN1CCC2(CC1)OCCN2S(=O)(=O)c1ccc(C(C)=O)cc1 [Compound C0096M] = 55

Fill in: FLNA pentapeptide of SEQ ID NO: 1 (Bn-VAKGL) (Homo sapiens) inhibition at 1 µM for COc1ccc(C(=O)N2CCC3(CC2)OCCN3C(=O)c2ccc(OC)cc2)cc1 = 40.7

Fill in: FLNA pentapeptide of SEQ ID NO: 1 (Bn-VAKGL) (Homo sapiens) inhibition at 1 µM for CC1CCC(C(C)C)C(OCC(O)CN2CCN(CCc3ccccc3)CC2)C1 (stereo not drawn) = 45.8

----------
System: mu opiate receptor (MOR)
experiment summary: MOR agonist activity using [35S]GTPγS binding assay in striatal membranes
Type: biochemical
condition description: 0.1 μM compound relative to DAMGO
Description: To assess the mu opiate receptor (MOR) agonist activity of positive compounds from the FLNA screening, compounds were tested in a [^35S]GTPγS binding assay using striatal membranes. […] The immunocomplexes so formed were collected by incubation at 25° C. for 30 minutes with 40 μl of agarose-conjugated protein A/G beads and centrifugation at 5,000×g at 4° C. for 5 minutes. […] The radioactivity in the suspension was determined by liquid scintillation spectrometry.
measurement name: % DAMGO (0.1 μM) (%)
Please state the figure in %; there is no need to write the unit.

• CC1CCC(C(C)C)C(OCC(O)CN2CCC(=O)CC2)C1 (stereo not drawn) = 63.9
• CC1CCC(C(C)C)C(OCC(O)CN2CCCC2)C1 (stereo not drawn) = 63.1
• CC1CN(CC(O)COc2ccccc2C(C)C)CC(C)O1 (stereo not drawn) = 98.4
• COc1ccc(OCC(O)CN2CCOc3ccccc32)cc1 (stereo not drawn) = 46.4

Given item CC(=O)c1ccc(OCC(O)CN2CC(C)OC(C)C2)cc1 (stereo not drawn) , the value recorded as its % DAMGO (0.1 μM) is 89.8

Given item CC1CCC(C)C(OCC(O)CN2CC(C)OC(C)C2)C1 (stereo not drawn) , the value recorded as its % DAMGO (0.1 μM) is 90.0

Given item CC1CCC(C(C)C)C(OCC(O)CN2CCN(CCN3CCOCC3)CC2)C1 (stereo not drawn) , the value recorded as its % DAMGO (0.1 μM) is 158.2

Given item CC1CCC(C(C)C)C(OCC(O)CN2CCC(=O)C(C)C2)C1 (stereo not drawn) , the value recorded as its % DAMGO (0.1 μM) is 74.1

Given item COc1ccc(OCC(O)Cn2ccc3ccccc32)cc1 (stereo not drawn) , the value recorded as its % DAMGO (0.1 μM) is 170.5
